From: PubChem BioAssay (NCI)

test system: MCF7 breast; experiment: NCI-60 one-dose screen, 48 h; settings: 10 µM unless noted
This is part of a sample that, as a whole, favours compounds with a hit. Of some 83,000 tested, about 20% had one in any assay. Calls of active or inactive are those of the source. Rule for the calls: active = growth percent below 10; inactive = the rest.
Hi! Could you answer with just one of these? 1 = active, -1 = inactive

Call for entry CC(=O)Oc1ccc(Cl)cc1CN(C(C)=O)C1CCCCC1 :
-1

Call for entry FC(F)(F)c1[nH]ncc1-c1nc2ccc3n[nH]c(C#Cc4cccnc4)c3c2c2c1CCCC2 :
-1

Call for entry COc1cc2c(cc1O)CC[C@@H]1[C@@H]2CC[C@]2(C)[C@@H](NCCN(C)C)CC[C@@H]12 :
1

Call for entry O=C(CN1CCCCC1)Nc1ccc2oc(=O)ccc2c1 :
-1

Call for entry CC1=CC(C)(C)Nc2ccc(Cc3ccc4c(c3)C(C)=CC(C)(C)N4)cc21 :
-1

Call for entry CSc1ccc(-c2ccccc(=O)c2O)cc1 :
-1

Call for entry O=C1/C(=C/c2ccc(Cl)cc2)SC(=S)N1CCc1ccc(O)cc1 :
-1

Call for entry C=CCSSc1ncnc2c1ncn2C1OC(CO)C(O)C1O (configuration not stated) :
1

Call for entry CCCCN1CCCn2c1nc1c2c(=O)n(CCC)c(=O)n1CCC :
-1

Call for entry CON1C(=O)CC[C@]2(C)[C@H]3CC[C@@H]4C([C@@]5(C)CCC(=O)O5)CC[C@@]4(C)[C@]3(C)CC[C@H]2C1(C)C (some centres not stated) :
-1

Call for entry C=C(C)C(=O)Nc1ccc(NC(C)C)cc1 :
-1

Call for entry C#CCOc1ccc2ncnc(Nc3cccc(CNC(=O)CCl)c3)c2c1 :
-1

Call for entry COc1cccc(/C=N/NC(=O)c2ccccc2Nc2ccnc(C(F)(F)F)c2)c1O :
1

Call for entry Cc1ccc(C(SCC(N)C(=O)O)(c2ccccc2)c2ccc(C)cc2)cc1 (configuration not stated) :
-1

Call for entry CCCOc1cc2ccccc2cc1C(=O)Nc1nc(N)c2c(ccc3nccc32)[nH]1 :
1

Call for entry C(=N/Nc1ncc(-c2cc3cc(-c4ccccc4)ccc3o2)s1)/c1cccs1 :
-1

Call for entry C=CC(COC(c1ccccc1)(c1ccccc1)c1ccccc1)N(CC)CC (configuration not stated) :
-1

Call for entry C=CC(=O)Nc1cccc(-c2nc(SC)nc(NCc3ccccc3)c2C#N)c1 :
-1

Call for entry O=C(C(=O)c1ccc2c(c1)OCO2)c1ccc2c(c1)OCO2 :
-1

Call for entry O=C1OC(c2ccccc2)C(O)=C1c1ccccc1 (configuration not stated) :
-1

Call for entry O=C(Cc1ccc(/C=C/C(=O)c2ncc[nH]2)cc1)Nc1ccc(F)cc1 :
-1

Call for entry C=CC(=O)Nc1cccc(-c2nc(SC)nc(Nc3ccccc3OC)c2C#N)c1 :
1
